Biological target: NOX (Homo sapiens, UniProt P04839)
Construct: HL60 differentiation to the neutrophil phenotype was triggered by adding Me2SO; endogenous in cells; host or cells: HL-60 cells differentiated with DMSO (1.25% v/v, 6 days) to the neutrophil phenotype
Sequence (P04839 whole entry): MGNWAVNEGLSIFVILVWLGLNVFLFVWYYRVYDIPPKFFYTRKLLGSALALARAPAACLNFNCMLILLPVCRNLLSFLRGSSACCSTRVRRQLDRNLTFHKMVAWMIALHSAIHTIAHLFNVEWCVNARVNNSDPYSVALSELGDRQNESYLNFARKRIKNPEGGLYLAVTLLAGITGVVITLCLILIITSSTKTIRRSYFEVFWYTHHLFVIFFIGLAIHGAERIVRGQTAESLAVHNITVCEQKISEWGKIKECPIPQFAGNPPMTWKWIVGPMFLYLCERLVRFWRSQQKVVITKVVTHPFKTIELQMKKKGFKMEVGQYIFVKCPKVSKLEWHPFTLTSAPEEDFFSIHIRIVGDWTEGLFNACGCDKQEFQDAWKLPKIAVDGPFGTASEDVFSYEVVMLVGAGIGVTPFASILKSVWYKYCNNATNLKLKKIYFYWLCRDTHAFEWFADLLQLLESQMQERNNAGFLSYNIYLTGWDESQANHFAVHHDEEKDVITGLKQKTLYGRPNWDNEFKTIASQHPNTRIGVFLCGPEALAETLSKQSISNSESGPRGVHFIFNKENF
Sequence (P13498 whole entry partner): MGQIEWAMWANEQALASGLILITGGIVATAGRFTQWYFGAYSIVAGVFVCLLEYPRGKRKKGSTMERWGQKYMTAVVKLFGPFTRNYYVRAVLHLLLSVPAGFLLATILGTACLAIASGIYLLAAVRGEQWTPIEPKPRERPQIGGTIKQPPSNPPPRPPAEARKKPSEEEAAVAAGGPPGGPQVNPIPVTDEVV
Test: Amplex Red measurement of extracellular hydrogen peroxide (NOX activity) using DMSO-differentiated HL60 cells
Assay type: cell-based
Conditions: DMSO-differentiated HL60 cells, test concentration not given
The following compounds are shown together with reported Inhibition (%) of NOX activity values.

- COMPOUND: "CC(=O)N1CCC(Cn2c(-c3ccc(Cl)cc3)c3c(=O)n(C)[nH]c3cc2=O)CC1 [Compound 98]"
  Inhibition (%) of NOX activity: 92
- COMPOUND: "Cn1[nH]c2cc(=O)n(CC3CN(Cc4ccccc4)CCO3)c(-c3ccc(Cl)cc3)c2c1=O (stereo not drawn) [Compound 97]"
  Inhibition (%) of NOX activity: 89
- COMPOUND: "COCCn1[nH]c2cc(=O)n(CCc3ccccn3)c(C)c2c1=O [Compound 15]"
  Inhibition (%) of NOX activity: 72
- COMPOUND: "Cc1c2c(=O)n(CC(C)C)[nH]c2cc(=O)n1C1CCc2ccccc21 (stereo not drawn) [Compound 48]"
  Inhibition (%) of NOX activity: 91
- COMPOUND: "COCCn1c(CCCOc2ccccc2)c2c(=O)n(CCN3CCOCC3)[nH]c2cc1=O [Compound 74]"
  Inhibition (%) of NOX activity: 95
- COMPOUND: "COCCn1[nH]c2cc(=O)n(CCOC)c(-c3ccc(Cl)cc3)c2c1=O [Compound 58]"
  Inhibition (%) of NOX activity: 95
- COMPOUND: "Cn1[nH]c2cc(=O)n(CC3CNC(=O)C3)c(-c3ccc(Cl)cc3)c2c1=O (stereo not drawn) [Compound 100]"
  Inhibition (%) of NOX activity: 90
- COMPOUND: "Cn1c(COc2ccc(F)cc2)c2c(=O)n(CCN3CCOCC3)[nH]c2cc1=O [Compound 86]"
  Inhibition (%) of NOX activity: 87
- COMPOUND: "Cc1c2c(=O)n(C)[nH]c2cc(=O)n1C [Compound 5]"
  Inhibition (%) of NOX activity: 48
- COMPOUND: "COCCn1[nH]c2cc(=O)n(Cc3ccccc3CN3CCOCC3)c(C)c2c1=O [Compound 18]"
  Inhibition (%) of NOX activity: 75
- COMPOUND: "COCCn1[nH]c2cc(=O)n(CC(=O)N3CCOCC3)c(C)c2c1=O [Compound 20]"
  Inhibition (%) of NOX activity: 75
- COMPOUND: "COCCn1[nH]c2cc(=O)n(C)c(-c3ccc(Cl)cc3)c2c1=O [Compound 77]"
  Inhibition (%) of NOX activity: 90
- COMPOUND: "Cc1c2c(=O)n(C)[nH]c2cc(=O)n1CCN1CCOCC1 [Compound 16]"
  Inhibition (%) of NOX activity: 74
- COMPOUND: "Cc1c2c(=O)n(C)[nH]c2cc(=O)n1Cc1ccco1 [Compound 6]"
  Inhibition (%) of NOX activity: 74
- COMPOUND: "CCOCCCn1c(COCc2ccccc2)c2c(=O)n(CCN3CCOCC3)[nH]c2cc1=O [Compound 89]"
  Inhibition (%) of NOX activity: 86
- COMPOUND: "CCCCc1c2c(=O)n(C)[nH]c2cc(=O)n1Cc1ccc(Cl)cc1 [Compound 8]"
  Inhibition (%) of NOX activity: 79
- COMPOUND: "Cc1c2c(=O)n(Cc3ccccc3)[nH]c2cc(=O)n1-c1cccc(OC(F)(F)F)c1 [Compound 3]"
  Inhibition (%) of NOX activity: 63
- COMPOUND: "Cc1c2c(=O)n(C3CCCCC3)[nH]c2cc(=O)n1Cc1ccccc1CN1CCOCC1 [Compound 13]"
  Inhibition (%) of NOX activity: 56
